Quick reference for pKd among some binders
Target: T1, EsCas13d, nuclease-dead (Eubacterium siraeum, UniProt B0MS50, R295A;H300A;R849A;H854A)
T1 sequence: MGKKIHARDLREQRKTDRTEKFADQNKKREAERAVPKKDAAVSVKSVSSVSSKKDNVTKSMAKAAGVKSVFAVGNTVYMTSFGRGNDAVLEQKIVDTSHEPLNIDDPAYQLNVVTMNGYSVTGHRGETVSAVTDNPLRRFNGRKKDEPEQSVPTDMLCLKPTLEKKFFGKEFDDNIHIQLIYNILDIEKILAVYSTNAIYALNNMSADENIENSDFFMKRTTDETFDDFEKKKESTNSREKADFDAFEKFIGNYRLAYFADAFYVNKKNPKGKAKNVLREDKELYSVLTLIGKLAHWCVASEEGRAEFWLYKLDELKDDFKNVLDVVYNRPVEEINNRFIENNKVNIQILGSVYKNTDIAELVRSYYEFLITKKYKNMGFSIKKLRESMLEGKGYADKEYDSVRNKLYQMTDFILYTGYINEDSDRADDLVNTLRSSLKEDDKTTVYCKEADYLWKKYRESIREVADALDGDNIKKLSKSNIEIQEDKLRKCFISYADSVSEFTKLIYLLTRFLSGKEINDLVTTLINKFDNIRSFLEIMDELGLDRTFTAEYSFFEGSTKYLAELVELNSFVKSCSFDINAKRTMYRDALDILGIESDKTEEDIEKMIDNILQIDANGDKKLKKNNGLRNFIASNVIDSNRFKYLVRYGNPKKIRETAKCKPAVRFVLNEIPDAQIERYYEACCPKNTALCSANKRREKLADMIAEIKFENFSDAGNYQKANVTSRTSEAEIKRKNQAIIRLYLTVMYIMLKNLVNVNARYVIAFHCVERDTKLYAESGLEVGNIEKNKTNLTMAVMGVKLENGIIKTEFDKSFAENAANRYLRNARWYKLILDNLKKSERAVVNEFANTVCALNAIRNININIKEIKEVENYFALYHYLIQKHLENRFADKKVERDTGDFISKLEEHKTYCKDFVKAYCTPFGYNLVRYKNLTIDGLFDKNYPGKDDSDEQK
Assay: crRNA (strand 1, pre-loaded); Mg2+; 40 mM Tris-HCl pH 7.5, 150 mM NaCl, 6 mM MgCl2, 1 mM DTT, 0.1% Tween-20, 0.2 mg/ml BSA; 25 C; 10 min per concentration, then washed
Details: tags: His6-TwinStrep-SUMO cleaved; N-terminal SNAP kept (SNAP-Surface 488); label: 3' end held by stalled T7 RNA polymerase
Formally, pKd is defined as -log10 of the concentration c, with c in mol/L.

target 2 MT 5'PFS ACU 3'PFS UAU (mixed) RNA 1: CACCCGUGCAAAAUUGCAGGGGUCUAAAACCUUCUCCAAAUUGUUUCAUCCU RNA 2: GGGAAUGGAUCCACAUCUACGAAUUCACUAGGAUGAAACAAUUUGGAGAAGUAUAGAUCGGAAGAGCACACGU    8.42

### Prompt Could you share which pKd value was measured for target 2 MT 5'PFS GGG 3'PFS CUA (mixed) RNA 1: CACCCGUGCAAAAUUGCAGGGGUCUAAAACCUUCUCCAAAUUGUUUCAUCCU RNA 2: GGGAAUGGAUCCACAUCUACGAAUUCGGGAGGAUGAAACAAUUUGGAGAAGCUAAGAUCGGAAGAGCACACGU ?
### Response 7.96

### Prompt Also, target 1 insA 3' of 4,insC 3' of 1 (mixed) RNA 1: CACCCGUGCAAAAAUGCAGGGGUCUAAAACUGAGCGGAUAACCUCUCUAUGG RNA 2: GGGAAUGGAUCCACAUCUACGAAUUCGUACCAUAGAGAGGUUAUCCGCAUCACCCGAGAUCGGAAGAGCACACGU please.
### Response 7.72

Values compiled from paper PMC10786891.
